tested_system: human orexin-2 receptor (Homo sapiens (Human))
Sequence (O43614 whole entry): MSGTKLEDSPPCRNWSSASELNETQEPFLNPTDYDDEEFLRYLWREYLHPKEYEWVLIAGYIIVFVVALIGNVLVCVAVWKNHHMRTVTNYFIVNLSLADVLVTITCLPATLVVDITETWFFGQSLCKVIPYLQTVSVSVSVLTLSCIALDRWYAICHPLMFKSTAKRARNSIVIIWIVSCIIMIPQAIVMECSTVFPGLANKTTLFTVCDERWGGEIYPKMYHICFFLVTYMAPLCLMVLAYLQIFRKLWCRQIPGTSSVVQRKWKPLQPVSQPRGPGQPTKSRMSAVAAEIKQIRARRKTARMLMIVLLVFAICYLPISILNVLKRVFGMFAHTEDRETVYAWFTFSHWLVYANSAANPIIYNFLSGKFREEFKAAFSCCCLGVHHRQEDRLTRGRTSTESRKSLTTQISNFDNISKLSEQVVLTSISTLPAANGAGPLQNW
protocol_description: Intracellular calcium measurements (FLIPR), antagonism of orexin-A response
experimental_parameters: CHO cells expressing human orexin-2 receptor, 3 nM orexin-A, geometric mean if determined several times, read-out: IC50 OX2
pIC50: −log10 of the molar value.
Outcome label depends on pIC50 relative to 7: at/above gives label 1, below gives label 0.

{"test_smiles": "Cc1c(Cl)cccc1-c1noc([C@@H]2CCN2C(=O)c2nc(N(C)C)sc2-c2ccccc2)n1", "class_label": "label 1"}
{"test_smiles": "Cc1c(Cl)cccc1-c1noc([C@@H]2CCN2C(=O)c2cc(Cl)ccc2-n2nccn2)n1", "class_label": "label 1"}
{"test_smiles": "Cc1c(Cl)cccc1-c1nc([C@@H]2CCN2C(=O)c2ccc(C(F)(F)F)cc2-n2nccn2)no1", "class_label": "label 1"}
{"test_smiles": "Cc1ccc(C(=O)N2CC[C@H]2c2nc(-c3ccccc3OC(F)(F)F)no2)c(-n2nccn2)c1", "class_label": "label 1"}
{"test_smiles": "Cc1nc(C(=O)N2CC[C@H]2c2nc(-c3ccccc3OC(F)(F)F)no2)c(-c2ccccc2)s1", "class_label": "label 1"}
{"test_smiles": "Cc1c(Cl)cccc1-c1noc([C@@H]2CCN2C(=O)c2cc(C(F)(F)F)ccc2-n2nccn2)n1", "class_label": "label 0"}

###

Some compounds, each annotated with its measured pIC50.
tested_system: human orexin-1 receptor (Homo sapiens (Human), UniProt O43613)
Sequence (O43613 whole entry): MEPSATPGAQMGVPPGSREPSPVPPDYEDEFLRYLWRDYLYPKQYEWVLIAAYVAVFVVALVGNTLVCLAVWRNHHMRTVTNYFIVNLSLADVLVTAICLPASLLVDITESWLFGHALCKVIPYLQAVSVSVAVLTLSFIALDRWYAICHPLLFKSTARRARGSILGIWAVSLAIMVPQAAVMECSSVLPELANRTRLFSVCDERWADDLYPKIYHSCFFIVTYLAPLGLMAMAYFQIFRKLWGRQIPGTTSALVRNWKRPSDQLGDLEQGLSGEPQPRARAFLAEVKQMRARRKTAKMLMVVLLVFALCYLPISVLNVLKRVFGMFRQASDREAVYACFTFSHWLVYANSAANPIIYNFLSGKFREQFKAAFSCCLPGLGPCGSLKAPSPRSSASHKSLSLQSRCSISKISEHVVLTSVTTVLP
protocol_description: Intracellular calcium measurements (FLIPR), antagonism of orexin-A response
experimental_parameters: CHO cells expressing human orexin-1 receptor, 3 nM orexin-A, geometric mean if determined several times, read-out: IC50 OX1
Experimental: Antagonistic activities on both orexin receptors have been measured for each example compound using the following procedure: In Vitro Assay: Intracellular Calcium Measurements: […] Within the Fluorescent Imaging Plate Reader (FLIPR Tetra, Molecular Devices), antagonists are added to the plate in a volume of 10 μL/well, incubated for 120 min and finally 10 μL/well of agonist is added. […] The calculated IC50 values may fluctuate depending on the daily cellular assay performance. […]
pIC50: −log10 of the molar value.
readout_type: pIC50

{"test_smiles": "Cc1ccc(-n2nccn2)c(C(=O)N2CC[C@H]2c2nc(-c3ccccc3C)no2)c1", "tested_system": "human orexin-1 receptor (Homo sapiens (Human), UniProt O43613)", "meas_value": 5.91}
{"test_smiles": "Cc1cccc(-c2ocnc2C(=O)N2CC[C@H]2c2nc(-c3ccccc3OC(F)(F)F)no2)c1", "tested_system": "human orexin-1 receptor (Homo sapiens (Human), UniProt O43613)", "meas_value": 6.65}
{"test_smiles": "CCOc1ncccc1-c1noc([C@@H]2CCN2C(=O)c2cc(OC)c(C)cc2-n2nccn2)n1", "tested_system": "human orexin-1 receptor (Homo sapiens (Human), UniProt O43613)", "meas_value": 6.62}
{"test_smiles": "Cc1c(Cl)cccc1-c1noc([C@@H]2CCN2C(=O)c2cc(C(F)(F)F)ccc2-n2nccn2)n1", "tested_system": "human orexin-1 receptor (Homo sapiens (Human), UniProt O43613)", "meas_value": 5.80}
{"test_smiles": "COc1cc(C(=O)N2CC[C@H]2c2noc(-c3ccccc3OC(F)(F)F)n2)c(-n2nccn2)cc1C", "tested_system": "human orexin-1 receptor (Homo sapiens (Human), UniProt O43613)", "meas_value": 6.71}
{"test_smiles": "COc1cc(C(=O)N2CC[C@H]2c2noc(-c3cccc(Cl)c3C)n2)c(-n2nccn2)cc1C", "tested_system": "human orexin-1 receptor (Homo sapiens (Human), UniProt O43613)", "meas_value": 7.23}
{"test_smiles": "Cc1ccc(C(=O)N2CC[C@H]2c2noc(-c3cccc(Cl)c3C)n2)c(-n2nccn2)c1", "tested_system": "human orexin-1 receptor (Homo sapiens (Human), UniProt O43613)", "meas_value": 6.48}
{"test_smiles": "O=C(c1ccc(Cl)cc1-n1nccn1)N1CC[C@H]1c1nnc(-c2ccccc2OC(F)(F)F)[nH]1", "tested_system": "human orexin-1 receptor (Homo sapiens (Human), UniProt O43613)", "meas_value": 6.50}

###

Listing of recorded IC50 by entry.
tested_system: human orexin-2 receptor (Homo sapiens (Human))
protocol_description: Intracellular calcium measurements (FLIPR), antagonism of orexin-A response
experimental_parameters: CHO cells expressing human orexin-2 receptor, 3 nM orexin-A, geometric mean if determined several times, read-out: IC50 OX2

{"test_smiles": "Cc1ccc(C(=O)N2CC[C@H]2c2nc(-c3cccc(F)c3C)no2)c(-n2nccn2)c1", "IC50 [nM]": 23}
{"test_smiles": "Cc1nc(C(=O)N2CC[C@H]2c2nc(-c3ccccc3OC(F)(F)F)no2)c(-c2ccccc2F)s1", "IC50 [nM]": 59}
{"test_smiles": "Cc1c(Cl)cccc1-c1noc([C@@H]2CCN2C(=O)c2ccccc2-c2ccccc2)n1", "IC50 [nM]": 20}
{"test_smiles": "CCOc1ncccc1-c1nnc([C@@H]2CCN2C(=O)c2ccc(C)cc2-n2nccn2)[nH]1", "IC50 [nM]": 316}
{"test_smiles": "COc1cc(C(=O)N2CC[C@H]2c2noc(-c3ccccc3OC(F)(F)F)n2)c(-n2nccn2)cc1C", "IC50 [nM]": 4}
{"test_smiles": "Cc1cc(-n2nccn2)c(C(=O)N2CC[C@H]2c2noc(-c3cccc(Cl)c3C)n2)cc1Cl", "IC50 [nM]": 5}
{"test_smiles": "Cc1ccc(-n2nccn2)c(C(=O)N2CC[C@H]2c2nc(-c3cc(C)ccc3C)no2)c1", "IC50 [nM]": 17}
{"test_smiles": "COc1cc(C(=O)N2CC[C@H]2c2nc(-c3ccccc3OC(F)(F)F)no2)c(-n2nccn2)cc1Cl", "IC50 [nM]": 12}
{"test_smiles": "Cc1onc(-c2ccccc2Cl)c1C(=O)N1CC[C@H]1c1nc(-c2cccc(Cl)c2C)no1", "IC50 [nM]": 666}
{"test_smiles": "O=C(c1ccccc1-n1nccn1)N1CC[C@H]1c1nc(-c2ccccc2OC(F)(F)F)no1", "IC50 [nM]": 91}
{"test_smiles": "COc1cc(C(=O)N2CC[C@H]2c2nc(-c3cccc(Cl)c3C)no2)c(-n2nccn2)cc1Cl", "IC50 [nM]": 6}
{"test_smiles": "Cc1ccc(-n2nccn2)c(C(=O)N2CC[C@H]2c2nc(-c3cccc(F)c3C)no2)c1", "IC50 [nM]": 9}
{"test_smiles": "COc1cc(C(=O)N2CC[C@H]2c2noc(-c3cccc(F)c3C)n2)c(-n2nccn2)cc1Cl", "IC50 [nM]": 3}
{"test_smiles": "Cc1cc(-n2nccn2)c(C(=O)N2CC[C@H]2c2nnc(-c3ccccc3OC(F)(F)F)[nH]2)cc1Cl", "IC50 [nM]": 5}
{"test_smiles": "COc1cc(C(=O)N2CC[C@H]2c2noc(-c3ccccc3OC(F)(F)F)n2)c(-n2nccn2)cc1Cl", "IC50 [nM]": 11}
{"test_smiles": "Cc1ccc(-n2nccn2)c(C(=O)N2CC[C@H]2c2nnc(-c3ccccc3)[nH]2)c1", "IC50 [nM]": 450}
{"test_smiles": "Cc1onc(-c2ccccc2Cl)c1C(=O)N1CC[C@H]1c1nc(-c2ccccc2OC(F)(F)F)no1", "IC50 [nM]": 1190}
{"test_smiles": "Cc1ccc(-n2nccn2)c(C(=O)N2CC[C@H]2c2nc(-c3ccccc3Cl)no2)c1", "IC50 [nM]": 40}
{"test_smiles": "CCOc1ncccc1-c1nnc([C@@H]2CCN2C(=O)c2cc(C)ccc2-n2nccn2)[nH]1", "IC50 [nM]": 92}
{"test_smiles": "COc1c(Cl)cccc1-c1nc([C@@H]2CCN2C(=O)c2cc(C)c(C)cc2-n2nccn2)no1", "IC50 [nM]": 1}
{"test_smiles": "COc1cc(C(=O)N2CC[C@H]2c2noc(-c3cccc(F)c3OC)n2)c(-n2nccn2)cc1C", "IC50 [nM]": 0.6}
{"test_smiles": "CCOc1ncccc1-c1noc([C@@H]2CCN2C(=O)c2ccc(C)cc2-n2nccn2)n1", "IC50 [nM]": 100}
{"test_smiles": "Cc1cc(C(=O)N2CC[C@H]2c2nc(-c3cccc(F)c3C)no2)c(-n2nccn2)cc1C", "IC50 [nM]": 4}
{"test_smiles": "Cc1nc(C(=O)N2CC[C@H]2c2nc(-c3cccc(Cl)c3C)no2)c(-c2ccccc2)s1", "IC50 [nM]": 133}
{"test_smiles": "CCOc1ncccc1-c1nc([C@@H]2CCN2C(=O)c2cc(OC)c(Cl)cc2-n2nccn2)no1", "IC50 [nM]": 1}
{"test_smiles": "O=C(c1ccc(C(F)(F)F)cc1-n1nccn1)N1CC[C@H]1c1nnc(-c2ccccc2OC(F)(F)F)[nH]1", "IC50 [nM]": 17}
{"test_smiles": "CCOc1ncccc1-c1noc([C@@H]2CCN2C(=O)c2cc(OC)c(F)cc2-n2nccn2)n1", "IC50 [nM]": 27}
{"test_smiles": "Cc1cccc(-c2sc(C)nc2C(=O)N2CC[C@H]2c2nc(-c3cccc(Cl)c3C)no2)c1", "IC50 [nM]": 280}
{"test_smiles": "Cc1c(Cl)cccc1-c1nc([C@@H]2CCN2C(=O)c2ccccc2-n2nccn2)no1", "IC50 [nM]": 34}
{"test_smiles": "Cc1cc(C(=O)N2CC[C@H]2c2noc(-c3cccc(Cl)c3C)n2)c(-n2nccn2)cc1C", "IC50 [nM]": 2}
{"test_smiles": "Cc1c(Cl)cccc1-c1noc([C@@H]2CCN2C(=O)c2ncsc2-c2ccccc2)n1", "IC50 [nM]": 500}
